system: HeLa Kyoto; assay: solubility in G1/S (NP-40 vs SDS abundance) (log2 ratio); higher = more soluble; conditions: cell cycle stage: G1/S
QUANTITY KIND: solubility in G1/S (log2)
Form field (numeric): enter value without unit.

>>> measurement("MAAPSEVAAIAPGEGDGGGGGFGSWLDGRLEALGVDRAVYGAYILGILQEEEEEEKLDALQGILSAFLEEDSLLNICKEIVERWSETQNVVTKVKKEDEVQAIATLIEKQAQIVVKPRMVSEEEKQRKAALLAQYADVTDEEDEADEKDDSGATTMNIGSDKLLFRNTNVEDVLNARKLERDSLRDESQRKKEQDKLQRERDKLAKQERKEKEKKRTQRGERKR [CCDC43]")
0.483

// moving on: another record for solubility in G1/S (log2)
query: Note solubility in G1/S (log2) for the sequence shown: MSFKREGDDWSQLNVLKKRRVGDLLASYIPEDEALMLRDGRFACAICPHRPVLDTLAMLTAHRAGKKHLSSLQLFYGKKQPGKERKQNPKHQNELRREETKAEAPLLTQTRLITQSALHRAPHYNSCCRRKYRPEAPGPSVSLSPMPPSEVKLQSGKISREPEPAAGPQAEESATVSAPAPMSPTRRRALDHYLTLRSSGWIPDGRGRWVKDENVEFDSDEEEPPDLPLD [SCNM1]
result: 0.0519

* * *

system: HeLa Kyoto; assay: thermal stability score vs G1/S (z-score of summed log2 fold changes over temperatures); higher = more thermally stable than in G1/S; settings: cell cycle stage: early G1 (4.5 h after nocodazole release)
Each entry below lists one item and its recorded thermal stability score value.
Form field (numeric): enter value without unit.

query: Note thermal stability score for the substance shown: MERPQPDSMPQDLSEALKEATKEVHTQAENAEFMRNFQKGQVTRDGFKLVMASLYHIYVALEEEIERNKESPVFAPVYFPEELHRKAALEQDLAFWYGPRWQEVIPYTPAMQRYVKRLHEVGRTEPELLVAHAYTRYLGDLSGGQVLKKIAQKALDLPSSGEGLAFFTFPNIASATKFKQLYRSRMNSLEMTPAVRQRVIEEAKTAFLLNIQLFEELQELLTHDTKDQSPSRAPGLRQRASNKVQDSAPVETPRGKPPLNTRSQAPLLRWVLTLSFLVATVAVGLYAM [HMOX1]
result: 0.266

query: Note thermal stability score for the substance shown: MSTGGDFGNPLRKFKLVFLGEQSVGKTSLITRFMYDSFDNTYQATIGIDFLSKTMYLEDRTVRLQLWDTAGQERFRSLIPSYIRDSTVAVVVYDITNVNSFQQTTKWIDDVRTERGSDVIIMLVGNKTDLADKRQVSIEEGERKAKELNVMFIETSAKAGYNVKQLFRRVAAALPGMESTQDRSREDMIDIKLEKPQEQPVSEGGCSC [RAB6A]
result: -2.97

query: Note thermal stability score for the substance shown: MARENGESSSSWKKQAEDIKKIFEFKETLGTGAFSEVVLAEEKATGKLFAVKCIPKKALKGKESSIENEIAVLRKIKHENIVALEDIYESPNHLYLVMQLVSGGELFDRIVEKGFYTEKDASTLIRQVLDAVYYLHRMGIVHRDLKPENLLYYSQDEESKIMISDFGLSKMEGKGDVMSTACGTPGYVAPEVLAQKPYSKAVDCWSIGVIAYILLCGYPPFYDENDSKLFEQILKAEYEFDSPYWDDISDSAKDFIRNLMEKDPNKRYTCEQAARHPWIAGDTALNKNIHESVSAQIRKNFAKSKWRQAFNATAVVRHMRKLHLGSSLDSSNASVSSSLSLASQKDCLAPSTLCSFISSSSGVSGVGAERRPRPTTVTAVHSGSK [CAMK1D]
result: 0.0756

query: Note thermal stability score for the substance shown: "GPATCH8"
result: 0.236

query: Note thermal stability score for the substance shown: MRQKHYLEAAARGLHDSCPGQARYLLWAYTSSHDDKSTFEETCPYCFQLLVLDNSRVRLKPKARLTPKIQKLLNREARNYTLSFKEAKMVKKFKDSKSVLLITCKTCNRTVKHHGKSRSFVSTLKSNPATPTSKLSLKTPERRTANPNHDMSGSKGKSPASVFRTPTSGQSVSTCSSKNTSKTKKHFSQLKMLLSQNESQKIPKVDFRNFLSSLKGGLLK [C18ORF21]
result: -0.862

query: Note thermal stability score for the substance shown: MAALTLRGVRELLKRVDLATVPRRHRYKKKWAATEPKFPAVRLALQNFDMTYSVQFGDLWPSIRVSLLSEQKYGALVNNFAAWDHVSAKLEQLSAKDFVNEAISHWELQSEGGQSAAPSPASWACSPNLRCFTFDRGDISRFPPARPGSLGVMEYYLMDAASLLPVLALGLQPGDIVLDLCAAPGGKTLALLQTGCCRNLAANDLSPSRIARLQKILHSYVPEEIRDGNQVRVTSWDGRKWGELEGDTYDRVLVDVPCTTDRHSLHEEENNIFKRSRKKERQILPVLQVQLLAAGLLATKPGGHVVYSTCSLSHLQNEYVVQGAIELLANQYSIQVQVEDLTHFRRVFMDTFCFFSSCQVGELVIPNLMANFGPMYFCKMRRLT [NSUN4]
result: 0.266
